// reported log10 MIC for each item listed
- System: Staphylococcus aureus
- test.method.notes: Antimicrobial activity against methicillin-resistant Staphylococcus aureus ATCC 33591 assessed as bacterial growth inhibitions by CLSI protocol based microdilution method
- Type: functional
Record value = log10 of MIC given in µg/mL.

Example results:
structure.notation	log10 MIC
O=C(O)c1ccc(-n2cc(CNc3ccc(N4CCOCC4)c(C(F)(F)F)c3)c(-c3ccc(C(F)(F)F)cc3)n2)cc1	-0.11
O=C(O)c1ccc(-n2cc(CNc3ccc(Br)cc3)c(-c3ccc(C(F)(F)F)cc3)n2)cc1	-0.11
O=C(O)c1ccc(-n2cc(CNc3cccc(Cl)c3F)c(-c3ccc(C(F)(F)F)cc3)n2)cc1	0.19
O=C(O)c1ccc(-n2cc(CNc3cccc(OC(F)(F)F)c3)c(-c3ccc(C(F)(F)F)cc3)n2)cc1	-0.11
O=C(O)c1ccc(-n2cc(CNc3cc(F)c(F)c(F)c3)c(-c3ccc(C(F)(F)F)cc3)n2)cc1	-0.11

Asked: Name the recorded log10 MIC of the molecule listed here: O=C(O)c1ccc(-n2cc(CNc3ccc(Cl)cc3)c(-c3ccc(C(F)(F)F)cc3)n2)cc1
Given back: 0.19

Asked: Name the recorded log10 MIC of the molecule listed here: O=C(O)c1ccc(-n2cc(CNc3ccc(F)c(F)c3F)c(-c3ccc(C(F)(F)F)cc3)n2)cc1
Given back: 0.19

Asked: Name the recorded log10 MIC of the molecule listed here: O=C(O)c1ccc(-n2cc(CNc3cc(Cl)c(F)c(Cl)c3F)c(-c3ccc(C(F)(F)F)cc3)n2)cc1
Given back: -0.11

Asked: Name the recorded log10 MIC of the molecule listed here: Cc1ccc(NCc2cn(-c3ccc(C(=O)O)cc3)nc2-c2ccc(C(F)(F)F)cc2)cc1Cl
Given back: -0.11

Asked: Name the recorded log10 MIC of the molecule listed here: O=C(O)c1ccc(-n2cc(CNc3ccc(F)c(F)c3)c(-c3ccc(C(F)(F)F)cc3)n2)cc1
Given back: 0.19

Asked: Name the recorded log10 MIC of the molecule listed here: O=C(O)c1ccc(-n2cc(CNc3ccccc3)c(-c3ccc(C(F)(F)F)cc3)n2)cc1
Given back: 0.80

Asked: Name the recorded log10 MIC of the molecule listed here: O=C(O)c1ccc(-n2cc(CNc3ccc(F)c(Cl)c3F)c(-c3ccc(C(F)(F)F)cc3)n2)cc1
Given back: 0.19

Asked: Name the recorded log10 MIC of the molecule listed here: O=C(O)c1ccc(-n2cc(CNc3ccc(Cl)c(C(F)(F)F)c3)c(-c3ccc(C(F)(F)F)cc3)n2)cc1
Given back: -0.11

Asked: Name the recorded log10 MIC of the molecule listed here: O=C(O)c1ccc(-n2cc(CNc3cc(Cl)c(O)c(Cl)c3)c(-c3ccc(C(F)(F)F)cc3)n2)cc1
Given back: 1.70

Asked: Name the recorded log10 MIC of the molecule listed here: O=C(O)c1ccc(-n2cc(CNc3cccc(Cl)c3)c(-c3ccc(C(F)(F)F)cc3)n2)cc1
Given back: -0.11

Asked: Name the recorded log10 MIC of the molecule listed here: O=C(O)c1ccc(-n2cc(CNc3ccc(Cl)c(Cl)c3F)c(-c3ccc(C(F)(F)F)cc3)n2)cc1
Given back: -0.11

Asked: Name the recorded log10 MIC of the molecule listed here: O=C(O)c1ccc(-n2cc(CNc3cc(F)cc(C(F)(F)F)c3)c(-c3ccc(C(F)(F)F)cc3)n2)cc1
Given back: -0.41

----------
// reported MIC for each item listed
- Test system: Staphylococcus aureus
- test.method.notes: Antimicrobial activity against methicillin-susceptible Staphylococcus aureus ATCC 25923 assessed as bacterial growth inhibitions by CLSI protocol based microdilution method
- Format: functional
Quick reminder: number only, in µg/mL, skip the unit.

Asked: Name the recorded MIC of the compound listed here: O=C(O)c1ccc(-n2cc(CNc3ccc(F)cc3)c(-c3ccc(C(F)(F)F)cc3)n2)cc1
Given back: 6.25

Asked: Name the recorded MIC of the compound listed here: Cc1ccc(NCc2cn(-c3ccc(C(=O)O)cc3)nc2-c2ccc(C(F)(F)F)cc2)cc1Cl
Given back: 0.78

Asked: Name the recorded MIC of the compound listed here: O=C(O)c1ccc(-n2cc(CNc3ccc(Br)c(Cl)c3)c(-c3ccc(C(F)(F)F)cc3)n2)cc1
Given back: 0.78

Asked: Name the recorded MIC of the compound listed here: O=C(O)c1ccc(-n2cc(CNc3ccccc3)c(-c3ccc(C(F)(F)F)cc3)n2)cc1
Given back: 12.5

Asked: Name the recorded MIC of the compound listed here: O=C(O)c1ccc(-n2cc(CNc3cc(Cl)cc(C(F)(F)F)c3)c(-c3ccc(C(F)(F)F)cc3)n2)cc1
Given back: 0.78

----------
- Tested on: Staphylococcus epidermidis
- test.method.notes: Antimicrobial activity against methicillin-resistant Staphylococcus epidermidis ATCC 700296 assessed as bacterial growth inhibitions by CLSI protocol based microdilution method
- Format: functional
Hi! Just check whether MIC is below 3 µg/mL. Below gives MET, equal or above gives NOT MET.

structure.notation	label.value
O=C(O)c1ccc(-n2cc(CNc3cccc(Cl)c3)c(-c3ccc(C(F)(F)F)cc3)n2)cc1	NOT MET
O=C(O)c1ccc(-n2cc(CNc3ccc(C(=O)O)c(C(F)(F)F)c3)c(-c3ccc(C(F)(F)F)cc3)n2)cc1	NOT MET
O=C(O)c1ccc(-n2cc(CNc3cc(F)c(F)c(F)c3)c(-c3ccc(C(F)(F)F)cc3)n2)cc1	MET
O=C(O)c1ccc(-n2cc(CNc3ccc(F)cc3)c(-c3ccc(C(F)(F)F)cc3)n2)cc1	NOT MET
O=C(O)c1ccc(-n2cc(CNc3ccc(Br)cc3)c(-c3ccc(C(F)(F)F)cc3)n2)cc1	NOT MET
O=C(O)c1ccc(-n2cc(CNc3cc(Cl)cc(C(F)(F)F)c3)c(-c3ccc(C(F)(F)F)cc3)n2)cc1	MET
O=C(O)c1ccc(-n2cc(CNc3cc(Cl)c(F)c(Cl)c3)c(-c3ccc(C(F)(F)F)cc3)n2)cc1	MET

Asked: Just wondering, is MIC of O=C(O)c1ccc(-n2cc(CNc3cc(C(F)(F)F)ccc3F)c(-c3ccc(C(F)(F)F)cc3)n2)cc1 below 3 µg/mL?
Given back: NOT MET

----------
- Test system: Staphylococcus epidermidis
- test.method.notes: Antimicrobial activity against methicillin-resistant Staphylococcus epidermidis ATCC 700296 assessed as bacterial growth inhibitions by CLSI protocol based microdilution method
- Type: functional
measured.property: MIC (µg/mL)
Quick reminder: number only, in µg/mL, skip the unit.

structure.notation	MIC, µg/mL
O=C(O)c1ccc(-n2cc(CNc3cc(F)c(C(F)(F)F)c(F)c3)c(-c3ccc(C(F)(F)F)cc3)n2)cc1	3.12
O=C(O)c1ccc(-n2cc(CNc3cc(F)cc(C(F)(F)F)c3)c(-c3ccc(C(F)(F)F)cc3)n2)cc1	1.56

We now examine a further compound.
Asked: Name the recorded MIC of the compound listed here: O=C(O)c1ccc(-n2cc(CNc3cc(Cl)c(F)cc3F)c(-c3ccc(C(F)(F)F)cc3)n2)cc1
Given back: 3.12

----------
// reported MIC for each item listed
- Tested on: Staphylococcus aureus
- test.method.notes: Antimicrobial activity against methicillin-resistant Staphylococcus aureus ATCC 33591 assessed as bacterial growth inhibitions by CLSI protocol based microdilution method
- Type: functional
Quick reminder: number only, in µg/mL, skip the unit.

Asked: Name the recorded MIC of the compound listed here: O=C(O)c1ccc(-n2cc(CNc3cc(Cl)ccc3Cl)c(-c3ccc(C(F)(F)F)cc3)n2)cc1
Given back: 0.78

Asked: Name the recorded MIC of the compound listed here: O=C(O)c1ccc(-n2cc(CNc3cc(F)c(C(F)(F)F)cc3F)c(-c3ccc(C(F)(F)F)cc3)n2)cc1
Given back: 0.78

Asked: Name the recorded MIC of the compound listed here: O=C(O)c1ccc(-n2cc(CNc3cccc(F)c3)c(-c3ccc(C(F)(F)F)cc3)n2)cc1
Given back: 3.12

Asked: Name the recorded MIC of the compound listed here: NS(=O)(=O)c1ccc(NCc2cn(-c3ccc(C(=O)O)cc3)nc2-c2ccc(C(F)(F)F)cc2)cc1
Given back: 50

----------
- Test system: Staphylococcus epidermidis
- test.method.notes: Antimicrobial activity against methicillin-resistant Staphylococcus epidermidis ATCC 700296 assessed as bacterial growth inhibitions by CLSI protocol based microdilution method
- Type: functional
measured.property: MIC
Hi, when you answer, please include the unit after the number. Thanks!

Example results:
structure.notation	MIC
O=C(O)c1ccc(-n2cc(CNc3ccc(F)c(Cl)c3F)c(-c3ccc(C(F)(F)F)cc3)n2)cc1	1.56 µg/mL
O=C(O)c1ccc(-n2cc(CNc3ccc(N4CCOCC4)c(C(F)(F)F)c3)c(-c3ccc(C(F)(F)F)cc3)n2)cc1	1.56 µg/mL
O=C(O)c1ccc(-n2cc(CNc3ccc(Cl)c(C(F)(F)F)c3)c(-c3ccc(C(F)(F)F)cc3)n2)cc1	0.78 µg/mL
O=C(O)c1ccc(-n2cc(CNc3cc(Cl)ccc3Cl)c(-c3ccc(C(F)(F)F)cc3)n2)cc1	1.56 µg/mL
O=C(O)c1ccc(-n2cc(CNc3cccc(F)c3)c(-c3ccc(C(F)(F)F)cc3)n2)cc1	6.25 µg/mL
O=C(O)c1ccc(-n2cc(CNc3cccc(OC(F)(F)F)c3)c(-c3ccc(C(F)(F)F)cc3)n2)cc1	3.12 µg/mL
O=C(O)c1ccc(-n2cc(CNc3cc(C(F)(F)F)cc(C(F)(F)F)c3)c(-c3ccc(C(F)(F)F)cc3)n2)cc1	1.56 µg/mL

We now examine a further compound.
Asked: GET MIC where system = Staphylococcus epidermidis and item = O=C(O)c1ccc(-n2cc(CNc3ccc(F)c(Cl)c3)c(-c3ccc(C(F)(F)F)cc3)n2)cc1
Given back: 3.12 µg/mL
